The reported measurements were obtained from patent US20070197591A1.

test.method.notes: Single-dose pharmacokinetics of IR paliperidone in subjects with moderate hepatic impairment vs normal hepatic function
Format: in vivo, human
run.parameters: both sexes, human, plasma, oral, 1 mg, Hepatically-Impaired Subjects; Unbound
Description: Objectives: The primary objective of this study was to investigate the single-dose pharmacokinetics of immediate-release (IR) paliperidone, after oral administration, in subjects having moderate hepatic impairment (“hepatically-impaired subjects”) compared with subjects having normal hepatic function (“healthy subjects”). […] Criteria for Evaluation: Pharmacokinetics: Plasma and urine concentrations of the paliperidone enantiomers (+) R078543 and (-) R078544 were determined using an LC-MS/MS method. […]
property.name: Cmax (ng/mL)
# output: bare number, implied unit ng/mL

Indicate its recorded Cmax; the molecule in question is Cc1nc2n(c(=O)c1CCN1CCC(c3noc4cc(F)ccc34)CC1)CCCC2O (stereo not shown) 1.59

====

test.method.notes: Single-dose pharmacokinetics of IR paliperidone in subjects with moderate hepatic impairment vs normal hepatic function
Assay type: in vivo, human
run.parameters: both sexes, human, plasma, oral, 1 mg, Hepatically-Impaired Subjects; Unbound; read-out: tmax, median (range)
Method: Objectives: The primary objective of this study was to investigate the single-dose pharmacokinetics of immediate-release (IR) paliperidone, after oral administration, in subjects having moderate hepatic impairment (“hepatically-impaired subjects”) compared with subjects having normal hepatic function (“healthy subjects”). […] Criteria for Evaluation: Pharmacokinetics: Plasma and urine concentrations of the paliperidone enantiomers (+) R078543 and (-) R078544 were determined using an LC-MS/MS method. […]
property.name: Tmax
Could you give the number and then its unit, please?

Return reported Tmax. Input compound: Cc1nc2n(c(=O)c1CCN1CCC(c3noc4cc(F)ccc34)CC1)CCCC2O (stereo not shown) 1.25 h

====

test.method.notes: Plasma protein binding / unbound fraction of paliperidone and its enantiomers
Type: in vitro ADME, human
run.parameters: human, Healthy Subjects (n = 10)
property.name: fraction unbound
Form rule: numeric answer, no unit written next to it.

Provide one value: measured fraction unbound of Cc1nc2n(c(=O)c1CCN1CCC(c3noc4cc(F)ccc34)CC1)CCCC2O (stereo not shown) [Paliperidone, paliperidone] 0.279

====

test.method.notes: clinical
Design: species or system human
run.parameters: male, human, in vivo, po, Cmax
property.name: Cmax (ng/mL)
Write it as a number; the unit ng/mL goes unstated.

Identify measured Cmax associated with Cc1nc2n(c(=O)c1CCN1CCC(c3noc4cc(F)ccc34)CC1)CCCC2O (stereo not shown) 8.85

====

test.method.notes: Single-dose pharmacokinetics of IR paliperidone in subjects with moderate hepatic impairment vs normal hepatic function
Type: in vivo, human
run.parameters: both sexes, human, plasma, oral, 1 mg, Hepatically-Impaired Subjects; Unbound
property.name: AUC(0-inf) (ng·h/mL)
Record the value in ng·h/mL, omitting the unit from your answer.

Give AUC(0-inf) for Cc1nc2n(c(=O)c1CCN1CCC(c3noc4cc(F)ccc34)CC1)CCCC2O (stereo not shown) [Paliperidone, paliperidone] 45.7

====

test.method.notes: Plasma protein binding / unbound fraction of paliperidone and its enantiomers
Format: in vitro ADME, human
run.parameters: human, vs healthy subjects, read-out: unbound fraction higher in hepatically-impaired subjects
property.name: relative increase in unbound fraction vs healthy subjects

Provide one value: measured relative increase in unbound fraction vs healthy subjects of Cc1nc2n(c(=O)c1CCN1CCC(c3noc4cc(F)ccc34)CC1)CCCC2O (stereo not shown) ~0.27

====

test.method.notes: Single-dose pharmacokinetics of IR paliperidone in subjects with moderate hepatic impairment vs normal hepatic function
Format: in vivo, human
run.parameters: both sexes, human, plasma, oral, 1 mg, Healthy Subjects; Unbound
property.name: Cmax
Form entry: enter the amount, then its unit.

Using the record for Cc1nc2n(c(=O)c1CCN1CCC(c3noc4cc(F)ccc34)CC1)CCCC2O (stereo not shown) , state its measured Cmax. 1.81 ng/mL
